The following sequences are listed with their measured Kd values.
experimental_target: RPtag (large)
measurement_description: Buffer additive screen, Kd by fluorescence anisotropy
Type: binding, Thermoanaerobacter tengcongensis
setup_conditions: DTT (100 mM)
No end group written: not given here.

PAELKLITK [Nd8, Cd4, PAELKLITK] : 33 nM

As a next step, examine the sequence that follows.
Lookup result for KIANFIPAELKLITKANVQ [Nd2, p5a, e18a, KIANFIPAELKLITKANVQ] ; measured Kd: 0.073 nM

* * *

experimental_target: RPtag (large)
measurement_description: Buffer additive screen, Kd by fluorescence anisotropy
Type: binding, Thermoanaerobacter tengcongensis
setup_conditions: Gdn-HCl (6M)
pKd: −log10 of the molar value. No end group written: not given here.
quantity_kind: pKd

Previously resolved entries follow.
KIANFIPAELKLITKANVQ [Nd2, p5a, e18a, KIANFIPAELKLITKANVQ] : < 5.00
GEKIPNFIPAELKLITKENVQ [native] : < 5.00

As a next step, examine the sequence that follows.
Lookup result for PAELKLITK [Nd8, Cd4, PAELKLITK] ; measured pKd: < 5.00

Reference source: patent US11414454B2
